Values were extracted from patent US20230227427A1.

Field: IC50. Provide a value for each of the compounds that follow.
Biological target: human recombinant IL-17A (Homo sapiens, UniProt Q16552)
Construct: purchased R&D Systems 7955-IL/CF
Sequence (Q16552 24-155): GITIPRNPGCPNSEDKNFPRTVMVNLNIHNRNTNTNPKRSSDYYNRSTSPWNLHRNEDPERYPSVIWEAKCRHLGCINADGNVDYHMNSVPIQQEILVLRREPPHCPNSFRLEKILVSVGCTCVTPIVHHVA
Assay: IL-17A AlphaLISA assay (block binding of IL-17A to its receptor IL-17RA)
Conditions: compounds pre-incubated with the IL-17A for 30 min (indicated by * in Table A); read-out: AlphaLISA pIC50 (converted)
Expressed in nM, but write only the number.

[ask] human recombinant IL-17A (Homo sapiens, UniProt Q16552) / IC50 / Cn1nccc1C(=O)N[C@H](C(=O)Nc1ccc(-c2c(C(F)(F)F)cnn2C)cn1)[C@H]1CC[C@H](C)CC1 [Example 219] : value?
[reply] 126

[ask] human recombinant IL-17A (Homo sapiens, UniProt Q16552) / IC50 / Cc1cncc(C)c1-c1ccc(NC(=O)[C@@H](NC(=O)c2ccnn2C)C2CCC(F)(F)CC2)cc1 (single isomer, unassigned) [Example 98] : value?
[reply] 251

[ask] human recombinant IL-17A (Homo sapiens, UniProt Q16552) / IC50 / Cc1cnn(C)c1-c1ccc(NC(=O)[C@@H](NC(=O)c2conc2C(F)(F)F)[C@H]2CC[C@H](C)CC2)nc1 [Example 194] : value?
[reply] 158

[ask] human recombinant IL-17A (Homo sapiens, UniProt Q16552) / IC50 / CCc1nocc1C(=O)N[C@H](C(=O)Nc1ccc(-c2c(C)noc2C)nc1)C1CCCCCC1 [Example 171] : value?
[reply] 79.4

[ask] human recombinant IL-17A (Homo sapiens, UniProt Q16552) / IC50 / Cn1nccc1C(=O)N[C@H](C(=O)Nc1ccc(-c2c(Cl)cnn2C)cn1)C1CCCCCC1 [Example 174] : value?
[reply] 158
